System: Streptococcus mitis
Assay: Antibacterial activity against Streptococcus mitis ATCC 903 after 16 to 20 hrs
Format: functional
value-kind: MIC (µg/mL)
Numbers only, in µg/mL.

Check out these entries, answers already filled in.
>  <substance>
H-IKQLLHFFQRFGGGRWRWRWF-NH2

>  <target-of-assay>
Streptococcus mitis

>  <display-unit>
µg/mL

>  <assay-value>
64

$$$$
>  <substance>
H-RWRRLLKKLHHLLHGGGFKKFWKWFRRF-NH2

>  <target-of-assay>
Streptococcus mitis

>  <display-unit>
µg/mL

>  <assay-value>
32

$$$$
>  <substance>
H-RWRWRWF-NH2

>  <target-of-assay>
Streptococcus mitis

>  <display-unit>
µg/mL

>  <assay-value>
32

$$$$

Next item in the queue.
Qu. I am curious: what MIC value has been reported for H-IKQLLHFFQRF-NH2 ?
Ans. 64

====

Can you tell me MIC for the items I'm about to list?
System: Streptococcus gordonii
Experiment: Antibacterial activity against Streptococcus gordonii Challis DL1 after 16 to 20 hrs
Assay type: functional
Answers are plain numbers, in µg/mL.

Please supply MIC for each of the following items, keeping them in order.
1. H-IKQLLHFFQRF-NH2
2. H-RWRWRWFGGGFKKFWKWFRRF-NH2
3. H-LKRFLKWFKRF-NH2
4. H-RRRWWWF-NH2
5. H-RWRWRWF-NH2
6. H-RWRRLLKKLHHLLHGGGFKKFWKWFRRF-NH2
7. H-RWRRLLKKLHHLLH-NH2

Ans.
32
16
32
32
32
16
16

====

Test system: Lacticaseibacillus casei
Experiment: Antibacterial activity against Lactobacillus casei ATCC 4646 after 16 to 20 hrs
Assay type: functional
value-kind: MIC

Sample answers from the record:
>  <substance>
H-FKKFWKWFRRFGGGRWRWRWF-NH2

>  <MIC>
8 µg/mL

$$$$
>  <substance>
H-LKRFLKWFKRF-NH2

>  <MIC>
16 µg/mL

$$$$
>  <substance>
H-LKRFLKWFKRFGGGRWRWRWF-NH2

>  <MIC>
16 µg/mL

$$$$
>  <substance>
H-IKQLLHFFQRFGGGRWRWRWF-NH2

>  <MIC>
16 µg/mL

$$$$
>  <substance>
H-RWRWRWFGGGFKKFWKWFRRF-NH2

>  <MIC>
8 µg/mL

$$$$

Please give MIC for each item listed below.
1. H-RWRWRWFGGGLKRFLKWFKRF-NH2
2. H-RWRRLLKKLHHLLHGGGFKKFWKWFRRF-NH2
3. H-RWRWRWF-NH2

Ans.
1: 8 µg/mL; 2: 8 µg/mL; 3: 32 µg/mL

====

System: Streptococcus gordonii
Experiment: Antibacterial activity against Streptococcus gordonii Challis DL1 after 16 to 20 hrs
Format: functional
Assign MIC to each entry below.
Numbers only, in µg/mL.

Sample records with MIC:
>  <substance>
H-IKQLLHFFQRFGGGRWRWRWF-NH2

>  <value-kind>
MIC

>  <assay-value>
32

$$$$
>  <substance>
H-RWRWRWFGGGLKRFLKWFKRF-NH2

>  <value-kind>
MIC

>  <assay-value>
32

$$$$
>  <substance>
H-FKKFWKWFRRFGGGRWRWRWF-NH2

>  <value-kind>
MIC

>  <assay-value>
32

$$$$
>  <substance>
H-LKRFLKWFKRFGGGRWRWRWF-NH2

>  <value-kind>
MIC

>  <assay-value>
64

$$$$

Qu. Query: MIC; subject: H-FKKFWKWFRRF-NH2
Ans. 32
